Entry source: the array DNA melting data of Ke et al.

Catalogue of Tm readings, one per entry.
# RUN_DESCRIPTION: melting temperature; melt of duplexes
# ASSAY_CONTEXT: sodium 0.0675 M; strand 1 µM
Numbers only here, please. The scale is °C.

{"columns": ["SUBSTANCE", "Tm / °C"],
 "data": [
  ["CGACGTGCCTCATGTGCTG+CAGCACATCGAGCACGTCG ((((((((...((((((((+))))))))...))))))))", 50],
  ["CGACGTGCTAAATGTGCTG+CAGCACATTACGCACGTCG ((((((((..(((((((((+)))))))))..))))))))", 51.4],
  ["CGACGTGCTGGATGTGCTG+CAGCACATCCGGCACGTCG ((((((((.((((((((((+)))))))))).))))))))", 62.9],
  ["CGACGTGCCCTATGTGCTG+CAGCACATGAAGCACGTCG ((((((((...((((((((+))))))))...))))))))", 49],
  ["CGACGTGCACAATGTGCTG+CAGCACATGTGGCACGTCG ((((((((...((((((((+))))))))...))))))))", 51.2]
]}

// CGACGTGCCACATGTGCTG+CAGCACATGCGGCACGTCG (((((((((.(((((((((+))))))))).))))))))) : Tm value = 60.2
